Data origin: ChEMBL document CHEMBL1137755

- TARGET DESC: Guanine nucleotide-binding protein G(i) subunit alpha-1 (Homo sapiens) (UniProt P63096)
- Sequence (P63096 whole entry): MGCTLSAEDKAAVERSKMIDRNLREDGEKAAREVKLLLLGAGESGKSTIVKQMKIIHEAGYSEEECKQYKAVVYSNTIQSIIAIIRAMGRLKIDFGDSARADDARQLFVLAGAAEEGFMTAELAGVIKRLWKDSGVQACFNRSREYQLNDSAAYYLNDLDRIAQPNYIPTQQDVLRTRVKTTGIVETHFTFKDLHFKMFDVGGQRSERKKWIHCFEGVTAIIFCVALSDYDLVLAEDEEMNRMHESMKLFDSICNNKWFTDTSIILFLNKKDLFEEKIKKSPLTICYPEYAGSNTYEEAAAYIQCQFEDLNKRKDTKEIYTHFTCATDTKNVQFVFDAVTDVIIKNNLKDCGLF
- PROCEDURE SUMMARY: Activation of human Gi protein alpha1 subunit expressed in Escherichia coli assessed as protein bound [35S]GTPgammaS levels by scintillation spectroscopy
- Type: functional
Active and inactive are the calls of the source. The rule behind the calls is not given here.
Permitted responses: true (active), false (inactive)

> print(dat)
                               given.smiles  class.label
1                        CCCCCCCCCNN1CCNCC1        false
2  CCCCCCCCCCCCCCCN1CCC(C2CCN(C(=O)[C@@H](N)CCCCN)CC2)CC1         true
3                      CCOCCOCCOCCNC1CCNCC1        false
4                            CCCCCNC1CCNCC1        false
5                  c1ccc(CCCCNCC2CCNCC2)cc1        false

API: the following record is the query input.
**Q:** Answer briefly: the call reported for "CCCCCCCCCN1CCC(C2CCNCC2)CC1" in this assay.
**A:** false

* * *

- TARGET DESC: Guanine nucleotide-binding protein G(i) subunit alpha-1 (Homo sapiens) (UniProt P63096)
- PROCEDURE SUMMARY: Activation of human Gi protein alpha1 subunit expressed in Escherichia coli assessed as protein bound [35S]GTPgammaS levels at 10 uM by scintillation spectroscopy relative to basal
- Type: functional
Parameter: Activity. Scope: all listed entries.
The response must be a number in % with no trailing unit.

> print(dat)
                               given.smiles  readout.label  observed
1  CCCCCCCCCCCCCCC(=O)N1CCC(C2CCN(CCN)CC2)CC1       Activity       877
2    CCCCCCCCCCCCCCCN1CCC(C2CCN(CCN)CC2)CC1       Activity      2550

Summary for this compound, "CCCCCCCCCCCCCCCN1CCC(C2CCN(CCNC(=O)[C@@H](N)CCCCN)CC2)CC1" : Activity is 2990

* * *

- TARGET DESC: Guanine nucleotide-binding protein G(i) subunit alpha-1 (Homo sapiens)
- PROCEDURE SUMMARY: Activation of human Gi protein alpha1 subunit expressed in Escherichia coli assessed as protein bound [35S]GTPgammaS levels at 5 uM by scintillation spectroscopy
- Type: functional
Could you mark each record rule met if its Activity falls strictly under 80 fmol, and rule not met if it equals or exceeds it?

> print(dat)
                               given.smiles  class.label
1  CCCCCCCCCCCCCCCN1CCC(C2CCN(CCNC(=O)[C@@H](N)CCCCN)CC2)CC1     rule met
2         CCCCCCCCCCCCCCCNCC1CCN(CCNC=O)CC1     rule met
3                  CCCCCCCCCCCCCCCNC1CCNCC1     rule met
4  CCCCCCCCCCCCCCC(=O)N1CCC(C2CCN(CCN)CC2)CC1     rule met

Now take the following compound into account.
**Q:** Hi there! Is Activity for "CCCCCCCCCCCCCCCN1CCC(NC(=O)[C@@H](N)CCCCN)CC1" below 80 fmol, do you know?
**A:** rule not met
